Biological target: B1R receptor of the rat (CHO K1 cells stably transfected with the B1R gene of the rat) (Rattus norvegicus, UniProt P97583)
Construct: expressed in transfected cells; host or cells: CHO K1 cells (Chinese hamster ovary), stably transfected
Assay: Functional study on the bradykinin receptor 1 (B1R), Ca2+ fluorescence (Fluo-4) FLIPR/Novostar assay, rB1R cells
Assay type: cell-based
Settings: CHO-K1, 10 μM, library compounds CC_H, read-out: % Inhibition (r-B1R) at 10 μM
assay metric: inhibition at 10 µM (%)

compound	numeric readout
CN(C(=O)c1ccc2c(c1)C(NC(=O)c1cccnc1C(F)(F)F)CC2)C1CCN(c2ccnc(C3CC3)n2)CC1 (stereo not drawn)	101

[P] CN(C)C(=O)c1cc(N2CCC(N(C)C(=O)c3ccc4c(c3)C(NC(=O)CCC3CCCC3)CC4)CC2)ccn1 (stereo not drawn)
[Q] Cc1cc(N2CCC(N(C)C(=O)c3ccc4c(c3)C(NC(=O)c3ccccc3Cl)CC4)CC2)nc(N(C)C)n1 (stereo not drawn)
Look at P and Q . Which one has the lower recorded inhibition at 10 µM number? Select an item and report its label.
P
(P: 65%, Q: 101%)

---

Target: B1R receptor of the rat (CHO K1 cells stably transfected with the B1R gene of the rat) (Rattus norvegicus, UniProt P97583)
Construct: expressed in transfected cells; host or cells: CHO K1 cells (Chinese hamster ovary), stably transfected
Experiment: Functional study on the bradykinin receptor 1 (B1R), Ca2+ fluorescence (Fluo-4) FLIPR/Novostar assay, rB1R cells
Format: cell-based
Details: CHO-K1, 10 μM, read-out: % Inhibition (r-B1R) at 10 μM
From the text: The agonistic or antagonistic action of substances can be quantified on the bradykinin receptor 1 (B1R) of the species human and rat using ectopically expressing cell lines (CHO K1 cells) and with the aid of a Ca^2+-sensitive dye (Fluo-4) using a fluorescent imaging plate reader (FLIPR). […] The agonistic or antagonistic action of substances can be determined on the bradykinin receptor 1 (B1R) of the species human and rat using the following assay. […]
assay metric: inhibition at 10 µM (%)

molecule	assay metric	numeric readout
CN(C(=O)c1ccc2c(c1)C(NS(=O)(=O)Cc1ccccc1C(F)(F)F)CC2)C1CCN(c2ccc3cnccc3c2)CC1 (stereo not shown) [CC_H-55]	inhibition at 10 µM	96
Cc1cc(N2CCC(N(C)C(=O)c3ccc4c(c3)C(N(C)C(=O)c3cc(Cl)ccc3Cl)CC4)CC2)cc(C)n1 (stereo not shown) [CC_H-328]	inhibition at 10 µM	111
CN(C(=O)c1ccc2c(c1)C(NC(=O)c1c(Cl)cccc1C(F)(F)F)CC2)C1CCN(c2ccc3cnccc3c2)CC1 (stereo not shown) [CC_H-62]	inhibition at 10 µM	101
Cc1cccc(C)c1C(=O)NC1CCc2cc(C(=O)N(C)C3CCN(c4ccncc4)CC3)ccc21 (stereo not shown) [CC_H-66]	inhibition at 10 µM	86

---

Target: B1R receptor of the rat (CHO K1 cells stably transfected with the B1R gene of the rat) (Rattus norvegicus, UniProt P97583)
Construct: expressed in transfected cells; host or cells: CHO K1 cells (Chinese hamster ovary), stably transfected
Sequence (P97583 1-337): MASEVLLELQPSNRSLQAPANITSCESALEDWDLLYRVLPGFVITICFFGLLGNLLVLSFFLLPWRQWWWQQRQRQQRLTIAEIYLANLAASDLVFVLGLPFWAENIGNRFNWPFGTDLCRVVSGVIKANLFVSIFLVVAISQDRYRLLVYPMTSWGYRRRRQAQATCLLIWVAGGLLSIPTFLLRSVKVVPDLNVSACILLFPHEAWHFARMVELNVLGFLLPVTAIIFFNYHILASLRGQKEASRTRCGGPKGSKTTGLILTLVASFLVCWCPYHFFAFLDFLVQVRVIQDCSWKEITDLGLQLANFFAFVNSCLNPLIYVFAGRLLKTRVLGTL
Assay: Functional study on the bradykinin receptor 1 (B1R), Ca2+ fluorescence (Fluo-4) FLIPR/Novostar assay, rB1R cells
Format: cell-based
Conditions: CHO-K1, 10 μM, read-out: % inhibition (rat B1R) at 10 μM
assay metric: inhibition at 10 µM (%)

compound	inhibition at 10 µM (%)
CN(C)c1ccc(N2CCC(N(C)C(=O)c3ccc4c(c3)[C@H](NC(=O)c3ccccc3Cl)CC4)CC2)cn1	100
CN(C(=O)c1ccc2c(c1)[C@H](NC(=O)c1cccc3ccccc13)CC2)C1CCN(c2ccncc2)CC1	104
O=C(NCC1CCCN(c2ccncc2)C1)c1ccc2c(c1)[C@H](NC(=O)c1ccccc1Cl)CC2 (some centres unmarked)	97
CN(C(=O)c1ccc2c(c1)[C@H](NC(=O)c1ccccc1Cl)CCO2)C1CCN(c2ccncc2)CC1	103
CCN(C(=O)c1ccc(F)cc1Cl)[C@@H]1CCc2ccc(C(=O)N(C)C3CCN(c4cc(C)nc(C)n4)CC3)cc21	109

[I] CN(C(=O)c1ccc2c(c1)[C@H](NC(=O)c1ccccc1Cl)CC2)C1CCN(c2ccnc(N3CCCC3)c2)CC1
[II] CN(C(=O)c1ccc2c(c1)[C@H](NC(=O)c1ccccc1Cl)CC2)C1CCN(c2ccncc2)C(=O)C1 (some centres unmarked)
[III] CC(C)CC(=O)N[C@@H]1CCc2cc(C(=O)N(C)C3CCN(c4ccncc4)CC3)ccc21
Sort (3 compounds) by inhibition at 10 µM: min first. In your reply, arrange the labels in the requested order.
III, II, I

---

Biological target: B1R receptor of the rat (CHO K1 cells stably transfected with the B1R gene of the rat) (Rattus norvegicus)
Construct: expressed in transfected cells; host or cells: CHO K1 cells (Chinese hamster ovary), stably transfected
Experiment: Functional study on the bradykinin receptor 1 (B1R), Ca2+ fluorescence (Fluo-4) FLIPR/Novostar assay, rB1R cells
Type: cell-based
Conditions: CHO-K1, 10 μM, library compounds CC_H, read-out: % Inhibition (r-B1R) at 10 μM
assay metric: inhibition at 10 µM (%)

compound	inhibition at 10 µM, %
CN(C(=O)c1ccc2c(c1)C(NC(=O)c1cccnc1C(F)(F)F)CC2)C1CCN(c2ccnc(S(C)(=O)=O)n2)CC1 (stereo not shown)	91
CN(C(=O)c1ccc2c(c1)C(NC(=O)CCC1CCCC1)CC2)C1CCN(c2ncncc2F)CC1 (stereo not shown)	95
CN(C(=O)c1ccc2c(c1)C(NC(=O)c1cccnc1C(F)(F)F)CC2)C1CCN(c2ccnc(N3CCCC3)n2)CC1 (stereo not shown)	102
CN(C(=O)c1ccc2c(c1)C(NC(=O)c1cccnc1C(F)(F)F)CC2)C1CCN(c2ncncc2F)CC1 (stereo not shown)	98

---

Biological target: B1R receptor of the rat (CHO K1 cells stably transfected with the B1R gene of the rat) (Rattus norvegicus, UniProt P97583)
Construct: expressed in transfected cells; host or cells: CHO K1 cells (Chinese hamster ovary), stably transfected
Sequence (P97583 1-337): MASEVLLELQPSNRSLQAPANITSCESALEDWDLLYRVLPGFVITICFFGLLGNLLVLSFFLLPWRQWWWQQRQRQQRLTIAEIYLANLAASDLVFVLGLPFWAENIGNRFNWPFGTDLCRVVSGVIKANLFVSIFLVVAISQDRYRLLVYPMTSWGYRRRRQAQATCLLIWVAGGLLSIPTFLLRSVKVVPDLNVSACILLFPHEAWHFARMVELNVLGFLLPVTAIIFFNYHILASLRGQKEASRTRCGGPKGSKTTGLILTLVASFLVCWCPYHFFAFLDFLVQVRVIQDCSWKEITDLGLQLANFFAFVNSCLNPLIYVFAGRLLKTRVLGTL
Test: Functional study on the bradykinin receptor 1 (B1R), Ca2+ fluorescence (Fluo-4) FLIPR/Novostar assay, rB1R cells
Assay type: cell-based
Details: CHO-K1, 10 μM, read-out: % Inhibition (r-B1R) at 10 μM
assay metric: inhibition at 10 µM (%)

Take a look at these entries with their results.
compound	assay metric	numeric readout
Cc1cc(N2CCC(N(C)C(=O)c3ccc4c(c3)C(NC(=O)N(C)c3ccccc3Cl)CC4)CC2)cc(C)n1 (stereo not shown)	inhibition at 10 µM	106
CN(C(=O)c1ccc2c(c1)C(NC(=O)c1cccc(C(F)(F)F)c1Cl)CC2)C1CCN(c2ccc3cnccc3c2)CC1 (stereo not shown)	inhibition at 10 µM	111
Cc1cc(N2CCC(N(C)C(=O)c3ccc4c(c3)C(NC(=O)c3c(F)ccc(C)c3Cl)CC4)CC2)cc(C)n1 (stereo not shown)	inhibition at 10 µM	111
CN(C(=O)c1ccc2c(c1)C(N(C)C(=O)Nc1cc(Cl)ccc1Cl)CC2)C1CCN(c2ccncc2)CC1 (stereo not shown)	inhibition at 10 µM	67
CN(C(=O)c1ccc2c(c1)C(NC(=O)c1cccc(C(F)(F)F)c1Cl)CC2(C)C)C1CCN(c2ccncc2)CC1 (stereo not shown)	inhibition at 10 µM	111

[a] Cc1cc(N2CCC(N(C)C(=O)c3ccc4c(c3)C(NC(=O)CC(C)(C)C)CC4)CC2)cc(C)n1 (stereo not shown)
[b] CN(C(=O)c1ccc2c(c1)C(NC(=O)Nc1ccc(F)c(Cl)c1)CCO2)C1CCN(c2ccncc2)CC1 (stereo not shown)
Look at a and b . Which one has the lower recorded inhibition at 10 µM number? Select an item and report its label.
b
(b: 77%, a: 110%)
